Record form. Attribute: inhibitory effect. Fill in for each entry.
- measured-on: T1, RAGE-Fc (human, UniProt Q15109 23-344, limits assumed)
- T1 construct: also called hRAGE; not shown: Fc part, detected with anti-hIgG Fc-specific conjugate
- test-description: competition ELISA against S100A6, mAb 10 µg/mL

See these solved cases before continuing.
{"columns": ["binder", "experimental-result"],
 "data": [
  ["166 RAGE-1 (antibody, V domains shown, Anti-RAGE monoclonal antibody from a hybridoma, captured by anti-mouse Fc; also called LP08122; LP08122D) VH: QVQLQQSGPELVKPGTSVRISCKASGYTFTSYYIHWVKQRPGQGLEWIGWIYPGNVITNYHEKFKGKASLTADKSSSTAYMQLSSLTSEDSAVYFCAREDPFAYWGQGTLVTVSA VL: NIMMTQSPSSLAVSAGEKVTMSCKSSQSVLYSSNQKNYLAWYQQKPGQSPKLLIYWASTRESGVPDRFTGSGSGTDFTLTISSVQAEDLAVYYCHQYLSSYTFGGGTKLEIK", "> 20%"],
  ["158 RAGE-1 (antibody, V domains shown, Anti-RAGE monoclonal antibody from a hybridoma, captured by anti-mouse Fc; also called LP08105) VH: QIQLVQSGPELKKPGETVKISCKASGYTFTDYSMHWVKQAPGKGLKWMGWINTETGEPTYADDFKGRFAFSLETSASTAYLLINNLKTEDTATYFCARDYLYYYAMDYWGQGTSVTVSS VL: DVVLTQTPLSLPVNIGDQASISCKSTKSLLNSDGFTYLDWYLQKPGQSPQLLIYLVSNRFSGVPDRFSGSGSGTDFTLKISRVEAEDLGVYYCFQSNYLPLTFGGGTKVEIK", "> 20%"]
]}

Please find the next binder below.
Task item: Please look up its inhibitory effect: 240 RAGE-1 (antibody, V domains shown, Anti-RAGE monoclonal antibody from a hybridoma, captured by anti-mouse Fc; also called LP08108) VH: QIQLVQSGPELKKPGETVKISCKASGYTFTDYSMHWVKQAPGKGLKWMGWINTETGEPTYADDFKGRFAFSLETSASTAYLQINNLKNEDTATYFCARDYLYYYAMDYWGQGTSVTVSS VL: DVVLTQTPLSLPVSIGDQASISCKSTKSLLNSDGFTYLDWYLQKPGQSPQLLIYLVSNRFSGVPDSFSGSGSGTDFTLKISRVEAEDLGVYYCFQSNYFPLTFGGGTTLEIK
Reply: > 20%
